Recorded values, source patent US20130109682A1.

# Test system: KMS11 (human myeloma cell line)
# ASSAY COMMENT: Cell proliferation assay (CellTiter-Glo), KMS11
# Format: cell-based
# EXPERIMENTAL PARAMETERS: Homo sapiens, KMS-11; KMS11 cells, cell proliferation; read-out: KMS11-Luc EC50
pEC50: −log10 of the molar value.
Items are presented alongside their recorded pEC50.
MEASURED QUANTITY: pEC50

MOLECULE	MODIFIER	RECORDED MEASUREMENT
CC(C)[C@@H]1C[C@H](N)C[C@H](c2ccncc2NC(=O)c2ccc(F)c(-c3c(F)cccc3F)n2)O1	=	6.16
COc1cc(NC(=O)c2ccc(F)c(-c3c(F)cccc3F)n2)c([C@H]2C[C@@H](O)[C@H](O)[C@@H](CO)O2)cn1	<	5.00
CNC(=O)c1ccc(F)c(-c2nc(C(=O)Nc3cnccc3C3C[C@@H](N)[C@H](O)[C@@H](C(C)C)O3)ccc2F)c1F (stereo in doubt)	=	7.22
Cc1cc(F)c(-c2nc(C(=O)Nc3cnccc3[C@@H]3C[C@@H](N)CC(C)(C)O3)ccc2F)c(F)c1	=	6.44
CC[C@]1(O)[C@H](C)O[C@H](c2ccncc2NC(=O)c2nc(-c3ccccc3)cnc2N)C[C@@H]1N	=	5.05
CC(C)[C@@H]1C[C@H](N)C[C@H](c2ccncc2NC(=O)c2ccc(F)c(-c3c(F)ccc(C#N)c3F)n2)O1	=	5.87
C[C@H]1O[C@@H](c2ccncc2NC(=O)c2ccc(F)c(-c3ccccc3)n2)C[C@@H](N)[C@]1(C)O	=	5.33
CC[C@H]1O[C@@H](c2ccncc2NC(=O)c2ccc(F)c(-c3c(F)cc(C(C)(C)O)cc3F)n2)C[C@@H](N)[C@@H]1O	=	6.74
CC(C)(C)[C@H]1O[C@@H](c2ccncc2NC(=O)c2nc(-c3ccccc3)cnc2N)C[C@@H](N)[C@@H]1O	=	6.85
C[C@]1(O)[C@H](N)CC(c2ccncc2NC(=O)c2ccc(F)c(-c3c(F)cc(S(C)(=O)=O)cc3F)n2)O[C@@H]1C1CC1 (stereo in doubt)	=	5.96
Nc1ncc(-c2ccccc2)nc1C(=O)Nc1cnccc1[C@H]1C[C@@H](N)[C@@]2(O)CCCC[C@H]2O1	=	7.15
C[C@]1(O)[C@H](N)C[C@H](c2ccncc2NC(=O)c2nc(-c3ccccc3)cnc2N)O[C@@H]1C1CC1	=	6.06
CC[C@]1(O)[C@H](N)C[C@H](c2ccncc2NC(=O)c2nc(-c3ccccc3)cnc2N)O[C@@H]1C	=	6.02
CC(C)(C)[C@@H]1O[C@H](c2ccncc2NC(=O)c2nc(-c3ccccc3)cnc2N)C[C@@H](N)[C@H]1O	=	5.27
CC1(C)C[C@H](N)C[C@@H](c2ccncc2NC(=O)c2ccc(F)c(-c3c(F)cccc3F)n2)O1	=	6.85
CC(C)[C@H]1OC(c2ccncc2NC(=O)c2ccc(F)c(-c3c(F)ccc(C(=O)N(C)C)c3F)n2)C[C@@H](N)[C@@H]1O (stereo in doubt)	=	7.10
CC(C)[C@H]1OC(c2ccncc2NC(=O)c2ccc(F)c(-c3c(F)cc(OCCO)cc3F)n2)C[C@@H](N)[C@@H]1O (stereo in doubt)	=	7.52
C[C@@H]1O[C@H](c2ccncc2NC(=O)c2nc(-c3ccccc3)cnc2N)C[C@H](N)[C@@]1(C)O	=	5.23
Nc1cc(F)c(-c2c(F)cccc2F)nc1C(=O)Nc1cnccc1[C@H]1C[C@@H](N)[C@@]2(O)CCC[C@H]2O1	=	6.28
C[C@H]1O[C@@H](c2ccncc2NC(=O)c2ccc(F)c(-c3c(F)cccc3F)n2)C[C@@H](N)[C@]1(C)O	=	6.38
CCC[C@H]1O[C@@H](c2ccncc2NC(=O)c2nc(-c3ccccc3)cnc2N)C[C@@H](O)[C@@H]1O	=	6.00
CC[C@H]1O[C@@H](c2ccncc2NC(=O)c2nc(-c3ccccc3)cnc2N)C[C@@H](N)[C@]1(C)O	=	5.92
CC(C)[C@H]1O[C@@H](c2ccncc2NC(=O)c2ccc(F)c(-c3c(F)ccc(C#N)c3F)n2)C[C@@H](N)[C@@H]1O	=	6.72
C[C@H]1O[C@@H](c2ccncc2NC(=O)c2nc(-c3ccccc3)cnc2N)C[C@@H](N)[C@]1(C)O	=	5.69
Nc1ncc(-c2ccccc2)nc1C(=O)Nc1cnccc1[C@H]1C[C@@H](O)[C@H](O)[C@@H](CO)O1	=	5.00
CC(C)[C@@H]1C[C@H](N)C[C@H](c2ccncc2NC(=O)c2ccc(F)c(-c3c(F)cc(S(C)(=O)=O)cc3F)n2)O1	=	5.79
